Assay: Transparency (no crystallization or gelation) of 12-hydroxystearic acid compositions after manufacturing, visual inspection
Format: physicochemical
Set-up: key: C: a substantially transparent or transparent composition for at least three (3) months after manufacturing; X: an opaque (non-transparent, non-translucent) composition inconsistent with the claimed compositions of this invention and where benefit agent crystallization or composition gelation is almost immediately observed
Conditions: 25% SBA/75% Solvent; SBA = 12-hydroxystearic acid
observable: Transparency of composition

- molecule: "CCCCCCCCCCC(CO)CCCCCCCC (stereo not drawn)"
  observable: "Transparency of composition"
  value-measured: "X"
- molecule: "CC(O)CO (stereo not drawn)"
  observable: "Transparency of composition"
  value-measured: "X"
- molecule: "OCCOc1ccccc1"
  observable: "Transparency of composition"
  value-measured: "X"

###

Experiment: Transparency (no crystallization or gelation) of 12-hydroxystearic acid compositions after manufacturing, visual inspection
Format: physicochemical
Design: key: C: a substantially transparent or transparent composition for at least three (3) months after manufacturing; X: an opaque (non-transparent, non-translucent) composition inconsistent with the claimed compositions of this invention and where benefit agent crystallization or composition gelation is almost immediately observed
Details: 25% SBA/75% Solvent; SBA = 12-hydroxystearic acid
observable: Transparency of composition

- compound: "CO [Methanol]"
  Transparency of composition: "X"
- compound: "CC(C)CCCCCCCCCCCCCCC(=O)O [Isostearic Acid]"
  Transparency of composition: "X"
- compound: "CC(C)CCCCCCCCCCCCCCCO [Isostearyl Alcohol]"
  Transparency of composition: "X"
- compound: "CCOCCOCCO [2-(2-Ethoxyethoxy)ethanol]"
  Transparency of composition: "X"

query: // lookup Transparency of composition for CCO [Ethanol]
result: X

query: // lookup Transparency of composition for OCc1ccccc1 [Benzyl Alcohol]
result: X

query: // lookup Transparency of composition for OCCCCO [Butylene Glycol]
result: X
